- protocol.text: Biodistribution of 177Lu-labeled αMSH analogues in mice bearing SK-MEL-1 human melanoma
- run.parameters: male, NRG (NOD.Cg-Rag1tm1Mom Il2rgtm1Wjl/SzJ), mouse, adrenal glands, total radioactivity
Each entry below carries its reported tissue uptake at 24 h.
# number only, unit %ID/g dropped from output

// worked examples, tissue uptake at 24 h included
compound	readout	value
CCCC[C@H](NC(=O)CN1CCC(NC(=O)[C@H](CCCCNC(=O)CN2CCN(CC(=O)O)CCN(CC(=O)O)CCN(CC(=O)O)CC2)NC(=O)CNC(=O)CCCc2ccc(I)cc2)CC1)C(=O)N[C@H]1CC(=O)NCCCC[C@@H](C(N)=O)N(C)C(=O)[C@H](Cc2c[nH]c3ccccc23)NC(=O)[C@H](CCCNC(=N)N)N(C)C(=O)[C@@H](Cc2ccccc2)NC(=O)[C@H](Cc2c[nH]cn2)NC1=O [^177Lu-labeled CCZ01148, metal not drawn]	tissue uptake at 24 h	5.66
CCCC[C@H](NC(=O)CN1CCC(NC(=O)[C@H](CCCCNC(=O)CN2CCN(CC(=O)O)CCN(CC(=O)O)CCN(CC(=O)O)CC2)NC(=O)[C@H](CCC(=O)O)NC(=O)CCCc2ccc(I)cc2)CC1)C(=O)N[C@H]1CC(=O)NCCCC[C@@H](C(N)=O)N(C)C(=O)[C@H](Cc2c[nH]c3ccccc23)NC(=O)[C@H](CCCNC(=N)N)N(C)C(=O)[C@@H](Cc2ccccc2)NC(=O)[C@H](Cc2c[nH]cn2)NC1=O [^177Lu-labeled CCZ01118, metal not drawn]	tissue uptake at 24 h	0.27

input: Which tissue uptake at 24 h is reported for this compound? CCCC[C@H](NC(=O)CN1CCC(NC(=O)[C@H](CCCCNC(=O)CN2CCN(CC(=O)O)CCN(CC(=O)O)CCN(CC(=O)O)CC2)NC(=O)CNC(=O)CCCc2ccc(-c3ccc(C)cc3)cc2)CC1)C(=O)N[C@H]1CC(=O)NCCCC[C@@H](C(N)=O)N(C)C(=O)[C@H](Cc2c[nH]c3ccccc23)NC(=O)[C@H](CCCNC(=N)N)N(C)C(=O)[C@@H](Cc2ccccc2)NC(=O)[C@H](Cc2c[nH]cn2)NC1=O [^177Lu-labeled CCZ01158, metal not drawn]
output: 1.68

###

Each entry below carries its reported tissue uptake at 1 h.
- protocol.text: Biodistribution of 177Lu-labeled αMSH analogues in mice bearing B16F10 mouse melanoma
- Assay type: in vivo, C57BL/6J mice
- run.parameters: mouse, muscle, iv, total radioactivity; 1 h p.i., C57BL/6J mice, B16F10 melanoma; read-out: Biodistribution, Muscle
# number only, unit %ID/g dropped from output

molecule	value
CCCC[C@H](NC(=O)CN1CCC(NC(=O)[C@H](CCCCNC(=O)CN2CCN(CC(=O)O)CCN(CC(=O)O)CCN(CC(=O)O)CC2)NC(=O)[C@H](CCC(=O)O)NC(=O)CCCc2ccc(I)cc2)CC1)C(=O)N[C@H]1CC(=O)NCCCC[C@@H](C(N)=O)N(C)C(=O)[C@H](Cc2c[nH]c3ccccc23)N(C)C(=O)[C@H](CCCNC(=N)N)N(C)C(=O)[C@@H](Cc2ccccc2)NC(=O)[C@H](Cc2c[nH]cn2)N(C)C1=O [^177Lu-labeled CCZ01088, metal not drawn]	0.76

Now look at this one.
input: Which tissue uptake at 1 h is reported for this molecule? CCCC[C@H](NC(=O)CN1CCC(NC(=O)[C@H](CCCCNC(=O)CN2CCN(CC(=O)O)CCN(CC(=O)O)CCN(CC(=O)O)CC2)NC(=O)[C@H](CCC(=O)O)NC(=O)CCCc2ccc(I)cc2)CC1)C(=O)N[C@H]1CC(=O)NCCCC[C@@H](C(N)=O)NC(=O)[C@H](Cc2c[nH]c3ccccc23)NC(=O)[C@H](CCCNC(=N)N)NC(=O)[C@@H](Cc2ccccc2)NC(=O)[C@H](Cc2c[nH]cn2)NC1=O [^177Lu-labeled CCZ01082, metal not drawn]
output: 0.79

###

- protocol.text: Biodistribution of 177Lu-labeled αMSH analogues in mice bearing B16F10 mouse melanoma
- Type: in vivo, C57BL/6J mice
- run.parameters: mouse, kidneys, iv, total radioactivity; 1 h p.i., C57BL/6J mice, B16F10 melanoma; read-out: Biodistribution, Kidneys
readout: tissue uptake at 1 h (%ID/g)
# number only, unit %ID/g dropped from output

compound	tissue uptake at 1 h, %ID/g
CCCC[C@H](NC(=O)CN1CCC(NC(=O)CN2CCN(CC(=O)O)CCN(CC(=O)O)CCN(CC(=O)O)CC2)CC1)C(=O)N[C@H]1CC(=O)NCCCC[C@@H](C(N)=O)N(C)C(=O)[C@H](Cc2c[nH]c3ccccc23)NC(=O)[C@H](CCCNC(=N)N)N(C)C(=O)[C@@H](Cc2ccccc2)NC(=O)[C@H](Cc2c[nH]cn2)NC1=O [^177Lu-labeled CCZ01106, metal not drawn]	4.79
CCCC[C@H](NC(=O)CN1CCC(NC(=O)CN2CCN(CC(=O)O)CCN(CC(=O)O)CCN(CC(=O)O)CC2)CC1)C(=O)N[C@H]1CC(=O)NCCCC[C@@H](C(N)=O)N(C)C(=O)[C@H](Cc2c[nH]c3ccccc23)N(C)C(=O)[C@H](CCCNC(=N)N)N(C)C(=O)[C@@H](Cc2ccccc2)NC(=O)[C@H](Cc2c[nH]cn2)N(C)C1=O [^177Lu-labeled CCZ01099, metal not drawn]	4.15

Now look at this one.
input: Which tissue uptake at 1 h is reported for this compound? CCCC[C@H](NC(=O)CN1CCC(NC(=O)CN2CCN(CC(=O)O)CCN(CC(=O)O)CCN(CC(=O)O)CC2)CC1)C(=O)N[C@H]1CC(=O)NCCCC[C@@H](C(N)=O)NC(=O)[C@H](Cc2c[nH]c3ccccc23)NC(=O)[C@H](CCCNC(=N)N)NC(=O)[C@@H](Cc2ccccc2)NC(=O)[C@H](Cc2c[nH]cn2)NC1=O [^177Lu-labeled CCZ01048, metal not drawn, reference compound]
output: 5.36

###

Each entry below carries its reported tissue uptake at 4 h.
- protocol.text: Biodistribution of 177Lu-labeled αMSH analogues in mice bearing B16F10 mouse melanoma
- Assay type: in vivo, C57BL/6J mice
- run.parameters: mouse, blood, iv, total radioactivity; 4 h p.i., C57BL/6J mice, B16F10 melanoma; read-out: Biodistribution, Blood
- Method: The B16-F10 mouse melanoma cells were cultured and inoculated in mice as described in Example 1. For biodistribution studies, approximately 1-2 MBq of ^177Lu-labeled αMSH analogues via tail vein under anesthesia. At 1, 4, 24, and 120 h p.i., the mice were euthanized by CO2 inhalation. Organs/tissues were harvested and the radioactivity was measured as described in Example 1.
# number only, unit %ID/g dropped from output

molecule	unit.spec	tissue uptake at 4 h
CCCC[C@H](NC(=O)CN1CCC(NC(=O)CN2CCN(CC(=O)O)CCN(CC(=O)O)CCN(CC(=O)O)CC2)CC1)C(=O)N[C@H]1CC(=O)NCCCC[C@@H](C(N)=O)N(C)C(=O)[C@H](Cc2c[nH]c3ccccc23)N(C)C(=O)[C@H](CCCNC(=N)N)N(C)C(=O)[C@@H](Cc2ccccc2)NC(=O)[C@H](Cc2c[nH]cn2)N(C)C1=O [^177Lu-labeled CCZ01099, metal not drawn]	%ID/g	0.05
CCCC[C@H](NC(=O)CN1CCC(NC(=O)[C@H](CCCCNC(=O)CN2CCN(CC(=O)O)CCN(CC(=O)O)CCN(CC(=O)O)CC2)NC(=O)[C@H](CCC(=O)O)NC(=O)CCCc2ccc(I)cc2)CC1)C(=O)N[C@H]1CC(=O)NCCCC[C@@H](C(N)=O)NC(=O)[C@H](Cc2c[nH]c3ccccc23)NC(=O)[C@H](CCCNC(=N)N)NC(=O)[C@@H](Cc2ccccc2)NC(=O)[C@H](Cc2c[nH]cn2)NC1=O [^177Lu-labeled CCZ01082, metal not drawn]	%ID/g	2.82
CCCC[C@H](NC(=O)CN1CCC(NC(=O)[C@H](CCCCNC(=O)CN2CCN(CC(=O)O)CCN(CC(=O)O)CCN(CC(=O)O)CC2)NC(=O)[C@H](CCC(=O)O)NC(=O)CCCc2ccc(I)cc2)CC1)C(=O)N[C@H]1CC(=O)NCCCC[C@@H](C(N)=O)N(C)C(=O)[C@H](Cc2c[nH]c3ccccc23)N(C)C(=O)[C@H](CCCNC(=N)N)N(C)C(=O)[C@@H](Cc2ccccc2)NC(=O)[C@H](Cc2c[nH]cn2)N(C)C1=O [^177Lu-labeled CCZ01088, metal not drawn]	%ID/g	1.44

Now look at this one.
input: Which tissue uptake at 4 h is reported for this molecule? CCCC[C@H](NC(=O)CN1CCC(NC(=O)[C@H](CCCCNC(=O)CN2CCN(CC(=O)O)CCN(CC(=O)O)CCN(CC(=O)O)CC2)NC(=O)[C@H](CCC(=O)O)NC(=O)CCCc2ccc(I)cc2)CC1)C(=O)N[C@H]1CC(=O)NCCCC[C@@H](C(N)=O)N(C)C(=O)[C@H](Cc2c[nH]c3ccccc23)NC(=O)[C@H](CCCNC(=N)N)N(C)C(=O)[C@@H](Cc2ccccc2)NC(=O)[C@H](Cc2c[nH]cn2)NC1=O [^177Lu-labeled CCZ01118, metal not drawn]
output: 1.41
